study target: UniProt Q05469
Sequence (Q05469 whole entry): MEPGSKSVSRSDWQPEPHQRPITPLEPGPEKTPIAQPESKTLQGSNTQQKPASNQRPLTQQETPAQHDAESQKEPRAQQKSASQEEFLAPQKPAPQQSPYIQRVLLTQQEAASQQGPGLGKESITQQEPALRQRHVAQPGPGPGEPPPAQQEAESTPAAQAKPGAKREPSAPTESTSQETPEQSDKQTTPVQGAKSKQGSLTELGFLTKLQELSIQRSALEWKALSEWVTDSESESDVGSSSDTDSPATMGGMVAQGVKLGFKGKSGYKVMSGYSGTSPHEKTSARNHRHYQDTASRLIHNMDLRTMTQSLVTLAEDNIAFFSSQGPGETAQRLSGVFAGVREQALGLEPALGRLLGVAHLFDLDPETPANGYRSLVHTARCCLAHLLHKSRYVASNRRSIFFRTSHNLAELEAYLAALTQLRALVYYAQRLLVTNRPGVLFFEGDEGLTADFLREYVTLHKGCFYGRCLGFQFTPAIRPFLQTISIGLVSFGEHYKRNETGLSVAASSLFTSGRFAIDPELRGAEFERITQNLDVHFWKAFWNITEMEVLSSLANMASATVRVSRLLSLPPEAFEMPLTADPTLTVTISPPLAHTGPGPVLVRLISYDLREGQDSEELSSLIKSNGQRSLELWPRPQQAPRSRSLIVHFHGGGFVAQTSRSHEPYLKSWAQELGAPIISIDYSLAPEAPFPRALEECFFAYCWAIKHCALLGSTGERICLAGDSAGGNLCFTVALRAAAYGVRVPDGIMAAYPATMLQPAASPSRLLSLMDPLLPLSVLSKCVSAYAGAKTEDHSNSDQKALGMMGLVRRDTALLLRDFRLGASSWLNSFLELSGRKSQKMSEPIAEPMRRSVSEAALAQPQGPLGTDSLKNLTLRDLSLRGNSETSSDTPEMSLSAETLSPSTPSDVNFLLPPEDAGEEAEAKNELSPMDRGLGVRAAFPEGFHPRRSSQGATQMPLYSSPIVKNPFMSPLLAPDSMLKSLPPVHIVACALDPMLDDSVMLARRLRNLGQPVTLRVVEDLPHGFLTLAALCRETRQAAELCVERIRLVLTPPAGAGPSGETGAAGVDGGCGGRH
experiment description: Inhibition of recombinant human HSL expressed in Sf9 insect cells at 1 uM using PNPB as substrate measured after 5 mins by spectrophotometric method
property measured: inhibition (%)
// note: answer is a bare numeric in %

Answered cases to consult:
O=P(O)(O)c1ccccc1OCc1ccc(Oc2ccc(C(F)(F)F)cn2)cc1 ... -5
CC1(C)OB(c2ccccc2OCc2ccc(Oc3ccc(C(F)(F)F)cn3)cc2)OC1(C)C ... 81
CC1(C)OB(c2ccc(OCc3ccc(Oc4ccc(C(F)(F)F)cn4)cc3)cc2)OC1(C)C ... -10
OB(O)c1ccccc1OCc1ccc(Oc2ccc(C(F)(F)F)cn2)cc1 ... 89

IN: Returns the measured inhibition for the input compound. Input: CC1(C)OB(c2cccc(OCc3ccc(Oc4ccc(C(F)(F)F)cn4)cc3)c2)OC1(C)C
OUT: 59

IN: Would you mind telling me what inhibition value was observed for O=C(O)c1ccccc1OCc1ccc(Oc2ccc(C(F)(F)F)cn2)cc1 ?
OUT: -8

IN: inhibition lookup needed for N#Cc1ccccc1OCc1ccc(Oc2ccc(C(F)(F)F)cn2)cc1 , thanks.
OUT: 0

IN: Query (compound): O=C(c1ccccc1OCc1ccc(Oc2ccc(C(F)(F)F)cn2)cc1)C(F)(F)F ; field requested: inhibition
OUT: 1
